Experiment: Lipophilicity by reversed-phase TLC on RP-18 WF254s plates with standardization
Settings: isopropanol/water
I'd appreciate it if you could supply S (slope of the trend line RM vs φ) values for the items below.
I'd appreciate a reply containing only the number, no unit.

[in] // returns reported S (slope of the trend line RM vs φ) for input O=C1Nc2ccccc2C1=O [Isatine, isatine, reference compound]
[out] 2.0065

[in] What about CC(=O)Oc1cc(C)cc2oc(=O)cc(C)c12 [Compound 2a, 5-acetoxy-4,7-dimethylcoumarin] ?
[out] 3.8312

[in] Do the same for c1ccc(Cc2ccccc2)cc1 [Diphenylmethane, diphenylmethane, reference compound] please
[out] 6.2485

[in] Again, but for c1ccc(Nc2ccccc2)cc1 [Diphenylamine, diphenylamine, reference compound]
[out] 4.6873

[in] Entry to check: CC(=O)c1c(C)cc2oc(=O)cc(C)c2c1O [Compound 3, 6-acetyl-5-hydroxy-4,7-dimethylcoumarin]
[out] 3.15

[in] Please answer likewise for Nc1ccc(Cl)cc1Cl [2,4-Dichloroaniline, 2,4-dichloroaniline, reference compound]
[out] 4.2876

[in] Entry Cc1cc(=O)oc2cc(O)ccc12 [Compound 8, 7-hydroxy-4-methylcoumarin] please
[out] 2.0405

[in] Subsequent entry: CC(=O)c1c(O)ccc2c(C)cc(=O)oc12 [Compound 9, 8-Acetyl-7-hydroxy-4-methylcoumarin]
[out] 2.6277

[in] Now consider CC(=O)c1cc2c(C)cc(=O)oc2cc1O [Compound 11, 6-Acetyl-7-hydroxy-4-methylcoumarin] .
[out] 2.8074

###

Test: Lipophilicity by reversed-phase TLC on RP-18 WF254s plates with standardization
Details: acetonitrile/water
Labelling field: enter Fulfilled if recorded S (slope of the trend line RM vs φ) is less than 4. Enter Not fulfilled if it equals or exceeds that cut-off.

[in] Say whether its S (slope of the trend line RM vs φ) is strictly beneath 4. Entry: CC(=O)c1c(C)cc2oc(=O)cc(C)c2c1O [Compound 3, 6-acetyl-5-hydroxy-4,7-dimethylcoumarin]
[out] Fulfilled

[in] Repeat for the following molecule: CC(=O)c1c(C)cc2oc(=O)cc(C)c2c1OCC#N
[out] Fulfilled

[in] Same lookup for c1ccc(Nc2ccccc2)cc1 [Diphenylamine, diphenylamine, reference compound] , please.
[out] Not fulfilled

[in] What do we get for CC(=O)Oc1cc(C)cc2oc(=O)cc(C)c12 ?
[out] Fulfilled

[in] Moving on to the next molecule: c1ccc(Cc2ccccc2)cc1 [Diphenylmethane, diphenylmethane, reference compound]
[out] Not fulfilled

[in] Can you check O=c1ccc2ccc(O)cc2o1 next?
[out] Fulfilled

[in] Please answer likewise for Cc1cc(=O)oc2cc(O)ccc12 [Compound 8, 7-hydroxy-4-methylcoumarin]
[out] Fulfilled

[in] Another molecule to check: Nc1ccc(Cl)cc1Cl [2,4-Dichloroaniline, 2,4-dichloroaniline, reference compound]
[out] Fulfilled
